The entries below come with measured phosphorylation enrichment values attached.
system: Hck (UniProt P08631)
Sequence (P08631 whole entry, looked up): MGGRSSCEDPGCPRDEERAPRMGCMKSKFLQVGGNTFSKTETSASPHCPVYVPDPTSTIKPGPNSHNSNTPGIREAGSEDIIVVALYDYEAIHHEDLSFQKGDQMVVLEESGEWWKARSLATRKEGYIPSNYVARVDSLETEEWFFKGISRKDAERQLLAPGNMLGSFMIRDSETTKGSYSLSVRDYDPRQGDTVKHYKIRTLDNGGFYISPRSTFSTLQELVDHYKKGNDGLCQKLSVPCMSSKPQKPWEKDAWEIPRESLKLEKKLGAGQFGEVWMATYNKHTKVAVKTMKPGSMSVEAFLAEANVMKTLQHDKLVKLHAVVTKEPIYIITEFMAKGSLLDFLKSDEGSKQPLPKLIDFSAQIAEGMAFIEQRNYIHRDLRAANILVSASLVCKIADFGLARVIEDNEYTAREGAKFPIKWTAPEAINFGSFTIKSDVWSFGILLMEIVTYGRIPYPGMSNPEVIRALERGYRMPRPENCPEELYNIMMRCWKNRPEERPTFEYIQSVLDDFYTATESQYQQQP
assay: phosphorylation enrichment, bacterial display (enrichment ratio); higher = better substrate or ligand; peptides without Tyr show the background;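 note: 11-residue human phosphosite peptides and single-mutation variants displayed on the E. coli surface, counted by deep sequencing, each peptide's frequency after selection divided by its frequency in the unselected input library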;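 note: frequency after pTyr selection over input frequency; kinase dosed for 20-30% of maximal phosphorylation in three min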
Give the figure by itself; no unit, no explanation.

Below, 5 sequences whose answers are already recorded.
Task item: Would you mind telling me what phosphorylation enrichment value was observed for IIEDPYFGNDS [ACP1_Y132_YF] ?
Reply: 0.96

Task item: Would you mind telling me what phosphorylation enrichment value was observed for YGTAQYCCRMG [LRRK2_Y2023_I2020T] ?
Reply: 1.2

Task item: Would you mind telling me what phosphorylation enrichment value was observed for CTTIHFNYMCN [TP53_Y234_Y234F] ?
Reply: 0.427

Task item: Would you mind telling me what phosphorylation enrichment value was observed for AGTILSHAHLD [ASS1_Y291_Y291S] ?
Reply: 0.412

Task item: Would you mind telling me what phosphorylation enrichment value was observed for MQMEEYRGRVE [BTNL2_Y91_W94R] ?
Reply: 0.459

Further cases:
Task item: Would you mind telling me what phosphorylation enrichment value was observed for GGPTYYIDTNA [ACTL6A_Y69] ?
Reply: 0.899

Task item: Would you mind telling me what phosphorylation enrichment value was observed for RAYRRYLLKQK [SCN2A_Y1919] ?
Reply: 0.51

Task item: Would you mind telling me what phosphorylation enrichment value was observed for DSGRDYVSQFE [APOA1_Y53] ?
Reply: 0.529

Task item: Would you mind telling me what phosphorylation enrichment value was observed for MGRVNYGAYIN [GLB1_Y485] ?
Reply: 0.395

Task item: Would you mind telling me what phosphorylation enrichment value was observed for QLATEYVFSDF [PANX1_Y10] ?
Reply: 0.703

Task item: Would you mind telling me what phosphorylation enrichment value was observed for LGPSDYFGEIV [PRKAR1A_Y323_A328V] ?
Reply: 0.577

Task item: Would you mind telling me what phosphorylation enrichment value was observed for SSFDTYHLSRE [KIR3DL2_Y253_I252T_YF] ?
Reply: 3.51

Task item: Would you mind telling me what phosphorylation enrichment value was observed for RGNKEYKEEKR [LENG1_Y96_E97K] ?
Reply: 0.425

Task item: Would you mind telling me what phosphorylation enrichment value was observed for FEPDAYFDLDQ [ELP5_Y302_D303Y_YF] ?
Reply: 0.622

Data provenance is the supplement of paper PMC10065799.
